Please go through the items and note down their Neutralization (Ave IC50 ug/ml).
- System tested: HA of influenza B virus ca B/Brisbane/60/2008 (victoria) (influenza B virus B/Brisbane/60/2008)
- Assay notes: cell-based or functional assay
Answers are plain numbers, in µg/mL.

Item under review: FBC-39 FSL (antibody, V domains shown) VH: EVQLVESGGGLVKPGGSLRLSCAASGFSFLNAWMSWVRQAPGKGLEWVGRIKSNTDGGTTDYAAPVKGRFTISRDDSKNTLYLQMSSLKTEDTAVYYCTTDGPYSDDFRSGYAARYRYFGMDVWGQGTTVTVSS VL: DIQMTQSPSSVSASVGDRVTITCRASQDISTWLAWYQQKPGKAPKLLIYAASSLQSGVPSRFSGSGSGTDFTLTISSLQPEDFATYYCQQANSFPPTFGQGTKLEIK . Reported Neutralization (Ave IC50 ug/ml)?
0.08

Item under review: FBC-39 (antibody, V domains shown) VH: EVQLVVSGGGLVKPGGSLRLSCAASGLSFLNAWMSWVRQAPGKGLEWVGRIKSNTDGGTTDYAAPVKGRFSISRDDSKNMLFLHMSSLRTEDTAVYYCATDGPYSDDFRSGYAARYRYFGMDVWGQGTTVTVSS VL: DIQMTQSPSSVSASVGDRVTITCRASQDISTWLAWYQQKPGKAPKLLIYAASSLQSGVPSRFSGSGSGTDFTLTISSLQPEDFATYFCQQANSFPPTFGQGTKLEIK . Reported Neutralization (Ave IC50 ug/ml)?
0.238

Now look at this entry.
Item under review: FBC-39 LSL (antibody, V domains shown) VH: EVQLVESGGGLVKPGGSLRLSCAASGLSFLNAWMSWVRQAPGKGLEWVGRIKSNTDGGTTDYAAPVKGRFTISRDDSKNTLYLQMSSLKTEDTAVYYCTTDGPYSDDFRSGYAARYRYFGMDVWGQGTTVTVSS VL: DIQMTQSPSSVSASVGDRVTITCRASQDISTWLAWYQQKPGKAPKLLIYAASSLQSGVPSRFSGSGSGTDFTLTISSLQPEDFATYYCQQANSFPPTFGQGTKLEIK . Reported Neutralization (Ave IC50 ug/ml)?
0.1
